Each entry below carries its reported MIC.
Tested on: broad panel of different clinical isolates
Experiment: microbe, parasite or virus in culture
Type: cell-based
Conditions: Escherichia coli, E. coli HAV#501; Clinical
Experimental: Minimum inhibitory concentrations (MICs) were determined by broth microdilution method or agar dilution method following the Clinical and Laboratory Standards Institute guidelines. Standard bacterial strains were obtained from American Type Culture Collection (ATCC). Other bacterial strains were obtained from hospitals and commercial sources, so noted in Table 11. […] Specialized procedures were employed for streptococcal and anaerobic strains. […]
ASSAY_ENDPOINT: MIC (µg/mL)

COMPOUND	ASSAY_ENDPOINT	BOUND_SIGN	MEAS_VALUE
C[C@H]1COc2c(N3CCN(C)CC3)c(F)cc3c(=O)c(C(=O)O)cn1c23	MIC	=	32
CCC[C@@H]1C[C@@H](C(=O)N[C@@H]([C@H]2O[C@H](SC)[C@H](O)[C@@H](O)[C@H]2O)[C@H](C)Cl)N(C)C1 [Clindamycin, clindamycin, reference compound]	MIC	>	128
CC[C@H]1OC(=O)[C@H](C)[C@@H](O[C@H]2C[C@@](C)(OC)[C@@H](O)[C@H](C)O2)[C@H](C)[C@@H](O[C@@H]2O[C@H](C)C[C@H](N(C)C)[C@H]2O)[C@](C)(O)C[C@@H](C)CN(C)[C@H](C)[C@@H](O)[C@]1(C)O	MIC	=	64
CC[C@H]1OC(=O)[C@H](C)[C@@H](O[C@H]2C[C@@](C)(OC)[C@@H](O)[C@H](C)O2)[C@H](C)[C@@H](O[C@@H]2O[C@H](C)C[C@H](N(C)C)[C@H]2O)[C@](C)(O)C[C@@H](C)C(=O)[C@H](C)[C@@H](O)[C@]1(C)O	MIC	>	64
CSC1O[C@H]([C@H](NC(=O)[C@H]2NC[C@@H]3C[C@H](CC(C)C)CCO[C@H]32)[C@H](C)Cl)C(O)[C@@H](O)[C@H]1O (some centres unmarked) [FSA-513018b]	MIC	=	8
